testedSystem: Alpha-1B adrenergic receptor (Homo sapiens, UniProt P35368)
Sequence (P35368 whole entry): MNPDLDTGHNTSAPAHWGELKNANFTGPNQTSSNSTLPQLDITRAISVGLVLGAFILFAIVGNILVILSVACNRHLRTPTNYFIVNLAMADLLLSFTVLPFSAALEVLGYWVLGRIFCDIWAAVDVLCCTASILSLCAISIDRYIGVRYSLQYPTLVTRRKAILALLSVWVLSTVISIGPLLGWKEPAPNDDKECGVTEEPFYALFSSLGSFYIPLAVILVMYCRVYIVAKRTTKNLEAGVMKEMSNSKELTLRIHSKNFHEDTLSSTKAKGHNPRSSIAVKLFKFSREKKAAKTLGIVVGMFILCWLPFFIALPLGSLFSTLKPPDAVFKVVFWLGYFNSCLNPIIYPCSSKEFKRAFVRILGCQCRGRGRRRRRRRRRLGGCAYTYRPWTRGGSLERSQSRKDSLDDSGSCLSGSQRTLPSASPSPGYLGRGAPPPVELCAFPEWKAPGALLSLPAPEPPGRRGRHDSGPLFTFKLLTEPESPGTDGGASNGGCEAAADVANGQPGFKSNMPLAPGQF
measurementProtocol: Activation of human alpha-1B adrenergic receptors expressed in rat-1 fibroblasts
Form field: EC50 (one value per entry).

1. Oc1ccc2cccc(NCC3=NCCN3)c2c1	> 5.01 µM
2. c1ccc(-c2ccno2)c(OCC2=NCCN2)c1	0.1 µM
3. CS(=O)(=O)c1ccccc1NCc1c[nH]cn1	> 100 µM

Continue with the next compound.
What value of EC50 has been recorded for this entry: CCN(CC)C(=O)c1ccccc1NCc1c[nH]cn1
> 5.01 µM
